The reported measurements were obtained from PubChem BioAssay.

Below, each entry is listed with its recorded z-score.
# Assay Name: P. aeruginosa biofilm formation inhibitors, primary screen, strain PAO1, LB-PBS medium, absorbance 600 nm (AID 1176); note: test concentration not given here
# Assay Context: P. aeruginosa PAO1 growth/biofilm, A600, 12 h; higher = more signal
Reply: number alone, nothing else.

Solved entries:
Output measured z-score for this item: Cc1ccc(S[C@]2(C(=O)NC(C)C)CC(=O)N(Cc3ccccc3Cl)[C@@H]2c2ccc(CO)cc2)cc1
1.52

Output measured z-score for this item: CCOC(=O)C=Cc1cc(F)ccc1O
-0.0727

---
Output measured z-score for this item: CCOC(=O)C1=C[C@@H](c2ccccc2)N(S(=O)(=O)c2ccc(C)cc2)[C@H]1c1ccccc1
0.878

Output measured z-score for this item: CCc1cccc(NC(=O)O[C@H]2[C@H](OC(=O)Nc3ccccc3)[C@H](OC(=O)Nc3ccccc3)[C@@H](OC)O[C@@H]2CO)c1
1.78

Output measured z-score for this item: CS(=O)(=O)CCOC(=O)C1=CC(CCCO)=CC(C2CC2)N(Cc2cccc(OC(F)(F)F)c2)C=C1C(=O)OCCS(C)(=O)=O (configuration not stated)
0.342

Output measured z-score for this item: C=CCNC(=O)[C@@H]1[C@H]2C(=O)O[C@H](c3ccccc3)[C@H](c3ccccc3)N2[C@H](c2ccc(O)cc2)[C@@]12C(=O)N(C(=O)OCCOC)c1ccc(C#CCCO)cc12
0.249

Output measured z-score for this item: COCCOC(=O)N1C(=O)[C@@]2(c3ccccc31)[C@H](c1ccccc1OCCO)N1[C@H](c3ccccc3)[C@H](c3ccccc3)OC(=O)[C@H]1[C@@H]2C(=O)N1CCCCCCC1
2.48

====

# Assay Name: basal S. cerevisiae growth modulation, no modifier, primary screen, OD600, strain BY4716, 24 h, basal condition (AID 1173)
# Assay Context: OD600, 24 h, higher = more signal, called active from +8 up or from −8 down
Binary classification by z-score, with -0.8 as an inclusive lower bound for Met; all other cases are Not met.

Does CCOC(=O)C1=C[C@@H](C(C)(C)C)N(S(=O)(=O)c2ccc(C)cc2)[C@H]1c1cccc(Cl)c1 have a reported z-score of at least -0.8?
Met

====

# Assay Name: osmotic lysis modulators in infected erythrocytes, primary screen, PSAC antagonist project, cell-based, P. falciparum Indochina, OD700, 3 h (AID 1156)
# Assay Context: higher = more signal, called active from +8 up or from −8 down
Observed Property: z-score
Reply: number alone, nothing else.

Solved entries:
Output measured z-score for this item: COCCOC(=O)N1C(=O)[C@@]2(c3cc(C#CC4=CCCCC4)ccc31)[C@H](c1ccc(O)cc1)N1[C@H](c3ccccc3)[C@H](c3ccccc3)OC(=O)[C@H]1[C@@H]2C(=O)NC[C@H](O)c1ccccc1
-0.164

Output measured z-score for this item: COc1ccc([Si](C)(C)[C@H]2[C@H](CCO)O[C@@]3(C(=O)N(Cc4ccccc4)c4ccc(N5CCOC5=O)cc43)[C@@H]2C)cc1
-0.307

Output measured z-score for this item: C=C(COC)C(=O)CC[C@@H](OC(=O)c1cccnc1)c1ccccc1OCCO
0.793

---
Output measured z-score for this item: CC(C)[Si]1(C(C)C)OCc2cc(-c3ccc(-c4ccc(Cl)c(Cl)c4)o3)nc(CCc3ccccc3)c21
-0.263

Output measured z-score for this item: O=C(O)[C@H]1C[C@H]2C(=O)N[C@@H](Cc3ccccc3)C(=O)N2[C@H]1c1cccc(OCCO)c1
-2.49

Output measured z-score for this item: C=C[C@H](C)[C@H](OC(=O)Nc1ccc(OC)cc1)c1ccc(OCCO)cc1
0.193

Output measured z-score for this item: COc1ccc(C(O)C2C=CC3C(=O)N(c4ccccc4)C(=O)C3N2Nc2ccccc2F)cc1 (stereo not drawn)
0.0183

Output measured z-score for this item: C=C/C=C/[C@@H]1C(=C)CN([C@@H](Cc2ccccc2)C(=O)OC)[C@H]1[C@@H](O)Cc1ccccc1
-0.41

====

# Assay Name: compound binding in COS7 lysate, probe aLAP1, primary screen, cell lysate, small-molecule microarray (AID 1124);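 note: lysate comes from COS7 cells expressing LAP1 and is applied at 0.3 µg/mL; score merges spot fluorescence near 667 nm with signal-to-noise over triplicate slides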
# Assay Context: probe aLAP1, fluorescence, higher = more signal
Observed Property: composite z-score
Reply: number alone, nothing else.

Output measured composite z-score for this item: COCCOC(=O)N1C(=O)[C@@]2(c3cc(C#CCCO)ccc31)[C@H](C(=O)N1CCCCCCC1)[C@H]1C(=O)O[C@H](c3ccccc3)[C@H](c3ccccc3)N1[C@@H]2c1ccccc1OCCO
0.359

---
Output measured composite z-score for this item: O=C1C2C=CC(C(O)C=Cc3ccc([N+](=O)[O-])cc3)N(Nc3ccccc3)C2C(=O)N1c1ccccc1 (stereo not given)
0.276

Output measured composite z-score for this item: CC1(C)C(=O)C(c2ccccc2)=C2CN3C(=O)N(CCc4ccccc4)C(=O)C3(Cc3ccc(C(F)(F)F)cc3)C=C21 (stereo not given)
0.014

====

# Tested Target: Fibroblast growth factor 2 (Homo sapiens) (UniProt P09038)
# Sequence (P09038 whole entry, looked up): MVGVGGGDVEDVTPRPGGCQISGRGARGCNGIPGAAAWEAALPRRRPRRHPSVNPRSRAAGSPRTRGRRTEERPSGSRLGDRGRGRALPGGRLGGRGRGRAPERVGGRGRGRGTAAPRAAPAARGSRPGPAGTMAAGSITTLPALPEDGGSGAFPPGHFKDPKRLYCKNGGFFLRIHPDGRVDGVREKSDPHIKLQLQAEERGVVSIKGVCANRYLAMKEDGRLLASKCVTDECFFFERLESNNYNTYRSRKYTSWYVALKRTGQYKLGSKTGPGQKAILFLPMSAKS
# Assay Name: FGF2 binders on small-molecule microarrays, primary screen, biochemical, small-molecule microarray, 635/667 nm fluorescence (AID 1133)
# Assay Context: small-molecule microarray binding, FGF2, fluorescence 635/667; higher = more signal
Observed Property: composite z-score
Reply: number alone, nothing else.

Solved entries:
Output measured composite z-score for this item: O=C(CS)NCCCCCCNC(=O)[C@@H]1C[C@@H]2C(=O)NCC(=O)N2[C@@H]1c1ccc(O)cc1
1.18

Output measured composite z-score for this item: COc1ccc([Si](C)(C)[C@@H]2[C@@H](CCn3cc([C@H](O)c4ccccc4)nn3)O[C@]3(C(=O)N(Cc4cccc(N5C(=O)c6cccc7cccc5c67)c4)c4ccccc43)[C@H]2C)cc1
-0.758

Output measured composite z-score for this item: [N-]=[N+]=NCc1ccccc1[C@H]1OC(c2ccc(OCCCO)cc2)=N[C@@]1(Cc1ccccc1)C(=O)NCCN1CCOCC1
1.63

Output measured composite z-score for this item: CCCCNC(=O)c1ccc(C#C[Si](C(C)C)(C(C)C)C(C)C)c(OC(C)=O)c1
0.883

Output measured composite z-score for this item: COc1ccc(C(O)C2C=CC3C(=O)N(c4ccccc4)C(=O)C3N2Nc2ccccc2)cc1 (stereo unspecified)
0.0088

Output measured composite z-score for this item: CC(C)C[C@@H]1NC(=O)[C@@H]2C[C@H](C(=O)NCCCCCC[N+](C)(C)C)[C@H](c3cccc(OCCO)c3)N2C1=O
1.17

Output measured composite z-score for this item: CC(C)CCC[C@@H](C)[C@H]1CC[C@@]2(C)C3=C(CC[C@]12C)[C@@]1(C)CC[C@H](OC(=O)c2ccccc2)C(C)(C)C1CC3 (stereo partly specified)
0.288

Output measured composite z-score for this item: CC(C)C(=C=CC[C@H](O)c1cccc(OCCO)c1)CCO
0.138

Output measured composite z-score for this item: Cc1ccc(S[C@]2(C(=O)NCC(C)C)CC(=O)N(C3Cc4ccccc4C3)[C@@H]2c2ccc(CO)cc2I)cc1
-1.02

Output measured composite z-score for this item: CC1CC/C=C\[C@H]2OC34C=CCN(C(C)(C)C)C(=O)[C@H]3N(C(CO)C(C)C)C(=O)[C@@H]4C2C(=O)O1 (stereo partly specified)
0.365

---
Output measured composite z-score for this item: CO[C@H]1O[C@H](CO)[C@@H](OC(=O)Nc2cccc(F)c2)[C@H](OC(=O)Nc2ccccc2-c2ccccc2)[C@H]1OC(=O)Nc1ccccc1-c1ccccc1
1.5

Output measured composite z-score for this item: CCOC(=O)C1=C[C@@H](C(C)(C)C)N(S(=O)(=O)c2ccc(C)cc2)[C@H]1c1ccc(C)cc1
0.949

Output measured composite z-score for this item: C=C(/C(=C/C[C@@H](OC(C)=O)c1ccc(CO)o1)c1cc(C(=O)OC)ccc1OC)C(C)C
0.682

Output measured composite z-score for this item: [N-]=[N+]=NCc1ccccc1C[C@]1(C(=O)N2CCOCC2)COC(c2ccc(OCCCO)cc2)=N1
-0.309

Output measured composite z-score for this item: COCC1=C2[C@@H](CCc3ccccc3)OB(O)C[C@@H]2[C@@H]2C(=O)N(C)C(=O)[C@@H]2C1
0.833

Output measured composite z-score for this item: O=C(CS)NCCCCCNC(=O)[C@@H]1C[C@@H]2C(=O)N[C@@H](Cc3ccccc3)C(=O)N2[C@@H]1c1cccc(OCCO)c1
1.6

====

# Tested Target: NADPH oxidase 5 (Homo sapiens) (UniProt Q96PH1)
# Sequence (Q96PH1 whole entry, looked up): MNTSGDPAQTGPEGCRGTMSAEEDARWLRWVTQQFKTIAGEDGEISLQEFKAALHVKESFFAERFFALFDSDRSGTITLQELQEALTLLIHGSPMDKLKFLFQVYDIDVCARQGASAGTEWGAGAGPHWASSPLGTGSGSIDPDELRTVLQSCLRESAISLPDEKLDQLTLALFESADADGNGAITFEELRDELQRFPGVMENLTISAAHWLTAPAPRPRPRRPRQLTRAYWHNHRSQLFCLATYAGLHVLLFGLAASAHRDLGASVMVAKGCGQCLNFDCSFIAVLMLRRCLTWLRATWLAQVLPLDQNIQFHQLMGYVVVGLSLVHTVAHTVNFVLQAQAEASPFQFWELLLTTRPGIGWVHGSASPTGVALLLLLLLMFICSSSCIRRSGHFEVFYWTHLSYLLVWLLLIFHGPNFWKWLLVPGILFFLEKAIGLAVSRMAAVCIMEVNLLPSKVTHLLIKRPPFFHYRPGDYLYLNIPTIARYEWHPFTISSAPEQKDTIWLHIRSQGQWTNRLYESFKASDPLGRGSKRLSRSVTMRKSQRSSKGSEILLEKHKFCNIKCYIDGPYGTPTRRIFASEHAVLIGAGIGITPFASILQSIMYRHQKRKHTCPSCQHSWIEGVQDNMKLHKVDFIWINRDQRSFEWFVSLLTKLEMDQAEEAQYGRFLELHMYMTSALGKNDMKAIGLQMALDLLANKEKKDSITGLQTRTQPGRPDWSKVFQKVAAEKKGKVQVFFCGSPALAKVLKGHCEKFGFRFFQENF
# Assay Name: NOX5-dependent H2O2 signal modulators, primary screen, NOX inhibitor project, cell-based, HEK293-NOX5, Amplex Red fluorescence (AID 1161)
# Assay Context: HEK293-NOX5, ionomycin, 45 min, higher = more signal
Below, each entry is listed with its recorded z-score.

Solved entries:
Output measured z-score for this item: COc1ccc(C#Cc2ccc3c(c2)[C@]2(C(=O)N3)[C@H](C(=O)N3CCCCCCC3)[C@H]3C(=O)O[C@H](c4ccccc4)[C@H](c4ccccc4)N3[C@@H]2c2ccc(O)cc2)cc1
0.00156

Output measured z-score for this item: COC(=O)C(CC#Cc1ccc2c(c1)[C@]1(C(=O)N2)[C@H](C(=O)Nc2nc3ccccc3s2)[C@H]2C(=O)O[C@H](c3ccccc3)[C@H](c3ccccc3)N2[C@@H]1c1ccc(OCCO)cc1)C(=O)OC
0.613

Output measured z-score for this item: C=C/C=C/[C@@H]1C(=C)CN([C@@H](Cc2ccccc2)C(=O)OC)[C@H]1[C@@H](O)Cc1ccccc1
0.568

Output measured z-score for this item: C=CC[C@H](OC(=O)Nc1ccc(SC)cc1)c1ccc(OCCO)cc1
-1.34

Output measured z-score for this item: COc1ccc([Si](C)(C)[C@H]2[C@H](CC(=O)N3Cc4ccccc4C[C@H]3CO)O[C@@]3(C(=O)N(Cc4ccc(N5C(=O)c6cccc7cccc5c67)cc4)c4ccccc43)[C@@H]2C)cc1
-1.66

Please find the next compound below.
Output measured z-score for this item: CC(C)C[C@@H]1NC(=O)[C@@H]2C[C@H](C(=O)NCCCCCC[N+](C)(C)C)[C@H](c3cccc(OCCO)c3)N2C1=O
2.51
